Tested on: NOMO1
Assay Protocol: cell viability relative to DMSO control; higher = less cytotoxic
Conditions Used: RPMI 5 mM glucose + 10% FBS; 48 h; 1.71 µM
Measured Attribute: cell viability
Respond with the figure and its unit, in that order.

Ask: Query: cell viability; subject: CC(C)C[C@H](NC(=O)[C@H](CCc1ccccc1)NC(=O)CN1CCOCC1)C(=O)N[C@@H](Cc1ccccc1)C(=O)N[C@@H](CC(C)C)C(=O)[C@@]1(C)CO1
Result: 3.7%

Ask: # get_value(readout='cell viability', item= Cn1cnc2c1c(=O)[nH]c(=O)n2C )
Result: 88.1%

Ask: Reported cell viability, compound COc1ncc(-c2ccc3nccc(-c4ccnnc4)c3c2)cc1N[S+](=O)([O-])c1ccc(F)cc1F : ____
Result: 43.1%

Ask: Need cell viability, item CC(C)(C)c1[nH]cnc1/C=c1\[nH]c(=O)/c(=C/c2ccccc2)[nH]c1=O
Result: 17.4%

These data points were gathered from the supplement of paper PMC11451515.
